Target: UniProt:P25095
Sequence (P25095 whole entry): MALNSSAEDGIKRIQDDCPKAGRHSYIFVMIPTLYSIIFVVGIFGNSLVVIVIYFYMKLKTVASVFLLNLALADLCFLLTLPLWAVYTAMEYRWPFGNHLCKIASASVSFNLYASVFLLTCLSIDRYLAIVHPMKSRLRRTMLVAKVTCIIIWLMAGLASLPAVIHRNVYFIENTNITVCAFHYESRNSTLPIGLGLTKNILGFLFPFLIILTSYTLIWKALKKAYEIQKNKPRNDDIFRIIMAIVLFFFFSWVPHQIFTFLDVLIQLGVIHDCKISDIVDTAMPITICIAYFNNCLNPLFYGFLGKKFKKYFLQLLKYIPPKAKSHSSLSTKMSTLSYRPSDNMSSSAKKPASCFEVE
Flag rule - IC50 less than 10 nM flags true; the remaining entries get false.

{"SAMPLE SMILES": "CCCc1nc2c(C)cc(-c3nc4ccccc4n3C)cc2n1Cc1ccc(-c2ccccc2C=C2SC(=O)NC2=O)cc1", "GROUP": "false"}
{"SAMPLE SMILES": "CCCc1nc2c(C)cc(-c3nc4ccccc4n3C)cc2n1Cc1ccc(-c2ccccc2S(=O)(=O)NC(=O)NCc2ccc(OC)cc2)cc1", "GROUP": "false"}
{"SAMPLE SMILES": "CCCc1nc2c(C)cc(-c3nc4ccccc4n3C)cc2n1Cc1ccc(-c2ccccc2NC(=O)C(F)(F)F)cc1", "GROUP": "false"}
{"SAMPLE SMILES": "CCc1nc2c(C)cc(-c3cn4c(n3)CCCC4)cc2n1Cc1ccc(-c2ccccc2S(=O)(=O)O)cc1", "GROUP": "true"}
{"SAMPLE SMILES": "CCCCc1nc2c(C)cc(N3CCCS3(=O)=O)cc2n1Cc1ccc(-c2ccccc2S(=O)(=O)NC(=O)c2ccccc2)cc1", "GROUP": "false"}
